assayTarget: BPLF1 1–246 (Epstein-Barr virus)
experimentSummary: biochemical
Structures can show the parent of a compound that is named as a salt.
What pIC50 was measured for each of the following?
To interpret pIC50, take it as minus log10 of a concentration measured in moles per litre.

Exam item: Dear colleague, please send me the reported pIC50 for Cc1cc2c(C(C)C)c(O)c(O)c(C=O)c2c(O)c1-c1c(C)cc2c(C(C)C)c(O)c(O)c(C=O)c2c1O when you can.
Marked response: 5.52

Exam item: Please report the measured pIC50 for O=C(O)C1=CC(=C(c2ccc(O)c(C(=O)O)c2)c2ccc(O)c(C(=O)O)c2)C=CC1=O
Marked response: 5.48

Exam item: In one line, give reported pIC50 of the entry CC1(C)CCC2=C(O1)c1ccccc1C(=O)C2=O .
Marked response: 5.60

Exam item: State its pIC50: Cc1ccc(C(=O)Nc2ccc(S(=O)(=O)O)c3cc(S(=O)(=O)O)cc(S(=O)(=O)O)c23)cc1NC(=O)c1cccc(NC(=O)Nc2cccc(C(=O)Nc3cc(C(=O)Nc4ccc(S(=O)(=O)O)c5cc(S(=O)(=O)O)cc(S(=O)(=O)O)c45)ccc3C)c2)c1 [suramin, Suramin sodium salt]
Marked response: 6.01

----------
Where a name gives a salt, the structure may show the parent alone.
readoutKind: pIC50
Formally, pIC50 is defined as -log10 of the concentration c, with c in mol/L.

Exam item: Report pIC50 on BPLF1 1–246 (Epstein-Barr virus, UniProt P03186) for this entry: O=C(Nc1cccc(C(=O)Nc2ccc(S(=O)(=O)O)c3cc(S(=O)(=O)O)cc(S(=O)(=O)O)c23)c1)Nc1cccc(C(=O)Nc2ccc(S(=O)(=O)O)c3cc(S(=O)(=O)O)cc(S(=O)(=O)O)c23)c1
Sequence (P03186 1-246): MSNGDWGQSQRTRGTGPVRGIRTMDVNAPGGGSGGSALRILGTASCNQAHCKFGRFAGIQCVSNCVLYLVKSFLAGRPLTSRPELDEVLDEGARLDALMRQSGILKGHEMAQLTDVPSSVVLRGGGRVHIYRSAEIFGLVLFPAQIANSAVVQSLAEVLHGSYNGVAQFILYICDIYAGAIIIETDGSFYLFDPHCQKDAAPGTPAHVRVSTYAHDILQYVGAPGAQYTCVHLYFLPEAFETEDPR
Marked response: 5.21

Exam item: Give the observed pIC50 of C[C@]12C=CC(=O)C=C1CC[C@@H]1C2=CC[C@]2(C)[C@@H](C(=O)CN3CCN(c4cc(N5CCCC5)nc(N5CCCC5)n4)CC3)CC[C@@H]12 [U-74389G maleate] for BPLF1 1–246 (Epstein-Barr virus, UniProt P03186).
Marked response: 5.47

----------
Can you tell me IC50 for the items I'm about to list?
Your answer is read as µM, so omit the unit and give the number.

Exam item: Check BPLF1 1–246 (Epstein-Barr virus, UniProt P03186) data and give IC50 for O=C1C(SCCO)=C(SCCO)C(=O)c2ccccc21 [NSC 95397] .
Marked response: 4.8

Exam item: Name the value of IC50 reported for OC[C@H]1O[C@H]([S-])[C@H](O)[C@@H](O)[C@@H]1O.[Au+] [Aurothioglucose] when tested on BPLF1 1–246 (Epstein-Barr virus, UniProt P03186).
Marked response: 2.5

Source: paper PMC7017600
